measurementTarget: CD209 antigen (Homo sapiens, UniProt Q9NNX6)
Sequence (Q9NNX6 whole entry): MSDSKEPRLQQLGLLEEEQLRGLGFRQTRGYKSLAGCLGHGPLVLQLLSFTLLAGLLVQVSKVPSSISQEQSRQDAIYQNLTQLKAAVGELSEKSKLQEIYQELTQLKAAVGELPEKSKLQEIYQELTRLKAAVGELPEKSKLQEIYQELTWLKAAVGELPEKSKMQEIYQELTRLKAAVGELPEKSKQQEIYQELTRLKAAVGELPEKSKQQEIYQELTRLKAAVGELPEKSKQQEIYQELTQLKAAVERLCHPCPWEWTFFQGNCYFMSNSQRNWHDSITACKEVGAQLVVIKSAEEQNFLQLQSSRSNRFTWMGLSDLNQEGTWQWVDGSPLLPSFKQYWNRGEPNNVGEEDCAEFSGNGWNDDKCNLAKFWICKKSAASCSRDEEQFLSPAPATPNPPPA
measureName: Kd
Give the number first and the unit second.

Problem: Would you kindly share the measured Kd for C[C@H](O)[C@@H](O)[C@@H](O)[C@H](O)C=O ?
Result: 6.7 mM
